Hey, just so you know, these numbers are from patent US7795229B2.

Could you please report measured melting point for the items listed next?

INSERT INTO measurements (compound, measured) VALUES
  ('O=C1[C@H](CC[C@H](O)c2ccc(F)cc2)[C@@H](c2ccc([C@@H]3O[C@H](CO)[C@@H](O)[C@H](O)[C@H]3O)cc2)N1c1ccc(F)cc1', '81 to 83 °C'),
  ('O=C1[C@H](CCCc2ccc(F)cc2)[C@@H](c2ccc(C[C@@H]3O[C@H](CO)[C@@H](O)[C@H](O)[C@H]3O)cc2)N1c1ccc(F)cc1 [Compound 2]', '110 to 112 °C');

// for each compound below, give its melting point
1. O=C(O)[C@H]1O[C@@H](Cc2ccc([C@@H]3[C@@H](CC[C@H](O)c4ccc(F)cc4)C(=O)N3c3ccc(F)cc3)cc2)[C@H](O)[C@@H](O)[C@@H]1O
2. CCOC(=O)c1ccc(N2C(=O)[C@H](CC[C@H](O)c3ccc(F)cc3)[C@H]2c2ccc(C[C@@H]3O[C@H](CO)[C@@H](O)[C@H](O)[C@H]3O)cc2)cc1
3. O=C1[C@H](CCCc2ccc(F)cc2)[C@@H](c2ccc(OC[C@@H]3O[C@H](CO)[C@@H](O)[C@H](O)[C@H]3O)cc2)N1Cc1ccccc1
4. COc1ccc(N2C(=O)[C@H](CCCc3ccc(F)cc3)[C@H]2c2ccc(C[C@@H]3O[C@H](COC(C)=O)[C@@H](OC(C)=O)[C@H](OC(C)=O)[C@H]3OC(C)=O)cc2)cc1
5. O=C1[C@H](CCCc2ccc(F)cc2)[C@H](c2ccc(C[C@@H]3O[C@H](CO)[C@@H](O)[C@H](O)[C@H]3O)cc2)N1c1ccc(F)cc1
6. O=C1[C@H](CC[C@H](O)c2ccc(F)cc2)[C@@H](c2ccc(CCC[C@@H]3O[C@H](CO)[C@@H](O)[C@H](O)[C@H]3O)cc2)N1c1ccc(F)cc1
7. O=C1[C@H](CC[C@H](O)c2ccc(F)cc2)[C@@H](c2ccc(CCCOC[C@@H]3O[C@H](CO)[C@@H](O)[C@H](O)[C@H]3O)cc2)N1c1ccc(F)cc1
8. O=C1[C@H](CC[C@H](O)c2ccccc2)[C@@H](c2ccc(C[C@@H]3O[C@H](CO)[C@@H](O)[C@H](O)[C@H]3O)cc2)N1c1ccccc1

1. 82 to 84 °C
2. 56 to 58 °C
3. 73 to 75 °C
4. 60 to 62 °C
5. 78 to 80 °C
6. 81 to 83 °C
7. 61 to 63 °C
8. 110 to 112 °C

Quick one: melting point for O=C1[C@H](CC[C@H](O)c2ccc(F)cc2)[C@@H](c2ccc(/C=C/C[C@@H]3O[C@H](CO)[C@@H](O)[C@H](O)[C@H]3O)cc2)N1c1ccc(F)cc1 ?
72 to 74 °C

----------
Could you please report measured melting point for the items listed next?

Illustrative cases are given below, each with its answer.
INSERT INTO results (compound, quantity_name, measured) VALUES
  ('O=C1[C@H](CCCc2ccc(F)cc2)[C@@H](c2ccc(C3O[C@H](CO)[C@@H](O)[C@H](O)[C@H]3O)cc2)N1c1ccc(F)cc1 (stereo partly drawn)', 'melting point', '89 to 90 °C'),
  ('O=C1[C@H](CCCc2ccc(F)cc2)[C@@H](c2ccc(C[C@@H]3O[C@H](CO)[C@@H](O)[C@H](O)[C@H]3O)cc2)N1c1ccc(F)cc1 [Compound 25]', 'melting point', '67 to 69 °C'),
  ('O=C1[C@H](CC[C@H](O)c2ccc(F)cc2)[C@@H](c2ccc(CC[C@@H]3O[C@H](CO)[C@@H](O)[C@H](O)[C@H]3O)cc2)N1c1ccccc1', 'melting point', '82 to 84 °C'),
  ('O=C1[C@H](CC[C@H](O)c2ccc(F)cc2)[C@@H](c2ccc(CC[C@@H]3O[C@H](CO)[C@@H](O)[C@H](O)[C@H]3O)cc2)N1c1ccc(F)cc1', 'melting point', '153 to 155 °C'),
  ('O=C1[C@H](CCOc2ccc(F)cc2)[C@@H](c2ccc(C[C@@H]3O[C@H](CO)[C@@H](O)[C@H](O)[C@H]3O)cc2)N1c1ccc(F)cc1', 'melting point', '65 to 67 °C');

// for each compound below, give its melting point
1. O=C(O)[C@H]1O[C@@H](Cc2ccc([C@@H]3[C@@H](CCCc4ccc(F)cc4)C(=O)N3c3ccc(F)cc3)cc2)[C@H](O)[C@@H](O)[C@@H]1O
2. O=C1[C@H](CCCc2ccc(F)cc2)[C@@H](c2ccc(C[C@@H]3O[C@H](CO)[C@@H](O)[C@H](O)[C@H]3O)cc2)N1c1ccccc1

1. 105 to 106 °C
2. 84 to 86 °C

// for each compound below, give its melting point
1. O=C(CC[C@H]1C(=O)N(c2ccccc2)[C@@H]1c1ccc(C[C@@H]2O[C@H](CO)[C@@H](O)[C@H](O)[C@H]2O)cc1)c1ccc(F)cc1
2. O=C1[C@H](CC[C@H](O)c2ccc(F)cc2)[C@@H](c2ccc([C@@H]3O[C@H](CO)[C@@H](O)[C@H](O)[C@H]3O)cc2)N1c1ccccc1

1. 104 to 106 °C
2. 80 to 82 °C

----------
Could you please report measured melting point for the items listed next?

INSERT INTO assay_data (structure_smiles_string, quantity_name, measured) VALUES
  ('O=C1[C@H](CC[C@H](O)c2ccc(F)cc2)[C@@H](c2ccc(/C=C/COC[C@@H]3O[C@H](CO)[C@@H](O)[C@H](O)[C@H]3O)cc2)N1c1ccc(F)cc1', 'melting point', '65 to 67 °C'),
  ('COc1ccc(N2C(=O)[C@H](CCCc3ccc(F)cc3)[C@H]2c2ccc(C[C@@H]3O[C@H](CO)[C@@H](O)[C@H](O)[C@H]3O)cc2)cc1', 'melting point', '73 to 75 °C'),
  ('O=C1[C@H](CC[C@H](O)c2ccc(F)cc2)[C@@H](c2ccc(/C=C/CCC[C@@H]3O[C@H](CO)[C@@H](O)[C@H](O)[C@H]3O)cc2)N1c1ccc(F)cc1', 'melting point', '69 to 71 °C');

// for each molecule below, give its melting point
1. O=C1[C@H](CC[C@H](O)c2ccc(F)cc2)[C@@H](c2ccc(/C=C/[C@@H]3O[C@H](CO)[C@@H](O)[C@H](O)[C@H]3O)cc2)N1c1ccc(F)cc1
2. O=C1[C@H](CCCc2ccc(F)cc2)[C@@H](c2ccc(C[C@@H]3O[C@H](CO)[C@@H](O)[C@H](O)[C@H]3O)cc2)N1c1ccc(Cl)cc1

["84 to 86 °C", "76 to 78 °C"]

----------
Could you please report measured melting point for the items listed next?

Illustrative cases are given below, each with its answer.
INSERT INTO measurements (compound, measured) VALUES
  ('O=C1[C@H](CC[C@H](O)c2ccc(C[C@@H]3O[C@H](CO)[C@@H](O)[C@H](O)[C@H]3O)cc2)[C@@H](c2ccc(F)cc2)N1c1ccc(F)cc1', '126 to 128 °C'),
  ('Cc1ccc(CCC[C@H]2C(=O)N(c3ccc(OC(C)(C)C(=O)O)cc3)[C@@H]2c2ccc(C[C@@H]3O[C@H](CO)[C@@H](O)[C@H](O)[C@H]3O)cc2)cc1', '161 to 162 °C'),
  ('CC(C)(Oc1ccc(N2C(=O)[C@H](CCCc3ccc(F)cc3)[C@H]2c2ccc(C[C@@H]3O[C@H](CO)[C@@H](O)[C@H](O)[C@H]3O)cc2)cc1)C(=O)O', '170 to 172 °C'),
  ('O=C1[C@H](CCOc2ccc(F)cc2)[C@@H](c2ccc(OC[C@@H]3O[C@H](CO)[C@@H](O)[C@H](O)[C@H]3O)cc2)N1c1ccc(F)cc1', '64 to 65 °C');

// for each compound below, give its melting point
1. CCOC(=O)C(C)(C)Oc1ccc(N2C(=O)[C@H](CCCc3ccc(F)cc3)[C@H]2c2ccc(C[C@@H]3O[C@H](CO)[C@@H](O)[C@H](O)[C@H]3O)cc2)cc1
2. O=C1[C@H](CCCc2ccccc2)[C@@H](c2ccc(C[C@@H]3O[C@H](CO)[C@@H](O)[C@H](O)[C@H]3O)cc2)N1c1ccccc1
3. O=C(O)[C@H]1O[C@@H](CCc2ccc([C@@H]3[C@@H](CC[C@H](O)c4ccc(F)cc4)C(=O)N3c3ccccc3)cc2)[C@H](O)[C@@H](O)[C@@H]1O
4. O=C(CC[C@H]1C(=O)N(c2ccc(F)cc2)[C@@H]1c1ccc(C[C@@H]2O[C@H](CO)[C@@H](O)[C@H](O)[C@H]2O)cc1)c1ccc(F)cc1
5. CC(=O)OC[C@H]1O[C@@H](Cc2ccc([C@@H]3[C@@H](CCOc4ccc(F)cc4)C(=O)N3c3ccc(F)cc3)cc2)[C@H](OC(C)=O)[C@@H](OC(C)=O)[C@@H]1OC(C)=O
6. O=C(O)c1ccc(N2C(=O)[C@H](CCCc3ccc(F)cc3)[C@H]2c2ccc(C[C@@H]3O[C@H](CO)[C@@H](O)[C@H](O)[C@H]3O)cc2)cc1

1. 73 to 74 °C
2. 84 to 86 °C
3. 110 to 112 °C
4. 78 to 80 °C
5. 64 to 66 °C
6. 97 to 99 °C
